- system: T1, huNav1.7α+β1 (human, UniProt Q15858 1-1988; Q07699 19-218)
- T1 construct: also called huNav1.7-beta1; HEKa/β1
- procedure text: binding FACS, HEKa/β1 cells
Listed here are binders together with their documented pEC50.
For clarity, pEC50 is expressed as the negative log10 of concentration in mol/L.

Worked set:
F010301090 (VHH, vs F0103265A11: Y56W, N58T, V60N, L103Q) VHH: EVQLVESGGGLVQPGGSLRLSCAASGMLFNANTQGWYRQAPGKQRELVAFIFSGGWTTYNDSVKGRFTISRDNAKRTMYLQMNSLKPEDSAIYYCSLSRYQGQGTLVTVSS    8.32
F010301191 (VHH, vs F0103265A11: A31R, Y56W, V60N, S93A, R101V, L103Q) VHH: EVQLVESGGGLVQPGGSLRLSCAASGMLFNRNTQGWYRQAPGKQRELVAFIFSGGWTNYNDSVKGRFTISRDNAKRTMYLQMNSLKPEDSAIYYCALSVYQGQGTLVTVSS    8.39
F010301565 (VHH, vs 387G05: D53G, D58G) VHH: EVQLVESGGGLVQAGGSLRLSCDASGRILRIGYMRWHRQGAGKQREFVARITGDSATGYADSVKGRFTISRDNAKNTVYLQMNNLNPEDTAVYYCEALVTASVRGGSIHSGTYWGRGTLVTVSS    9.00

## Task Any idea what its pEC50 is? The binder is F010301139 (VHH, vs F0103265A11: A31R, I51W, T57V, V60N, L103Q) VHH: EVQLVESGGGLVQPGGSLRLSCAASGMLFNRNTQGWYRQAPGKQRELVAFWFSGGYVNYNDSVKGRFTISRDNAKRTMYLQMNSLKPEDSAIYYCSLSRYQGQGTLVTVSS
## Result 8.33

## Task Any idea what its pEC50 is? The binder is F010301561 (VHH, vs 387G05: D23A, D53G) VHH: EVQLVESGGGLVQAGGSLRLSCAASGRILRIGYMRWHRQGAGKQREFVARITGDSATDYADSVKGRFTISRDNAKNTVYLQMNNLNPEDTAVYYCEALVTASVRGGSIHSGTYWGRGTLVTVSS
## Result 8.92

## Task Any idea what its pEC50 is? The binder is F010300534 (VHH, vs F0103265A11: T57V) VHH: EVQLVESGGGLVQPGGSLRLSCAASGMLFNANTQGWYRQAPGKQRELVAFIFSGGYVNYVDSVKGRFTISRDNAKRTMYLQMNSLKPEDSAIYYCSLSRYLGQGTLVTVSS
## Result 7.96

## Task Any idea what its pEC50 is? The binder is F010301059 (VHH, vs F0103265A11: T57V, V60N, S93A, L103Q) VHH: EVQLVESGGGLVQPGGSLRLSCAASGMLFNANTQGWYRQAPGKQRELVAFIFSGGYVNYNDSVKGRFTISRDNAKRTMYLQMNSLKPEDSAIYYCALSRYQGQGTLVTVSS
## Result 8.27

## Task Any idea what its pEC50 is? The binder is F010301559 (VHH, vs 387G05: D23A, D54G, D58G) VHH: EVQLVESGGGLVQAGGSLRLSCAASGRILRIGYMRWHRQGAGKQREFVARITDGSATGYADSVKGRFTISRDNAKNTVYLQMNNLNPEDTAVYYCEALVTASVRGGSIHSGTYWGRGTLVTVSS
## Result 9.04
